tested_on: MET (human) (Homo sapiens, UniProt P08581)
Sequence (P08581 25-1390): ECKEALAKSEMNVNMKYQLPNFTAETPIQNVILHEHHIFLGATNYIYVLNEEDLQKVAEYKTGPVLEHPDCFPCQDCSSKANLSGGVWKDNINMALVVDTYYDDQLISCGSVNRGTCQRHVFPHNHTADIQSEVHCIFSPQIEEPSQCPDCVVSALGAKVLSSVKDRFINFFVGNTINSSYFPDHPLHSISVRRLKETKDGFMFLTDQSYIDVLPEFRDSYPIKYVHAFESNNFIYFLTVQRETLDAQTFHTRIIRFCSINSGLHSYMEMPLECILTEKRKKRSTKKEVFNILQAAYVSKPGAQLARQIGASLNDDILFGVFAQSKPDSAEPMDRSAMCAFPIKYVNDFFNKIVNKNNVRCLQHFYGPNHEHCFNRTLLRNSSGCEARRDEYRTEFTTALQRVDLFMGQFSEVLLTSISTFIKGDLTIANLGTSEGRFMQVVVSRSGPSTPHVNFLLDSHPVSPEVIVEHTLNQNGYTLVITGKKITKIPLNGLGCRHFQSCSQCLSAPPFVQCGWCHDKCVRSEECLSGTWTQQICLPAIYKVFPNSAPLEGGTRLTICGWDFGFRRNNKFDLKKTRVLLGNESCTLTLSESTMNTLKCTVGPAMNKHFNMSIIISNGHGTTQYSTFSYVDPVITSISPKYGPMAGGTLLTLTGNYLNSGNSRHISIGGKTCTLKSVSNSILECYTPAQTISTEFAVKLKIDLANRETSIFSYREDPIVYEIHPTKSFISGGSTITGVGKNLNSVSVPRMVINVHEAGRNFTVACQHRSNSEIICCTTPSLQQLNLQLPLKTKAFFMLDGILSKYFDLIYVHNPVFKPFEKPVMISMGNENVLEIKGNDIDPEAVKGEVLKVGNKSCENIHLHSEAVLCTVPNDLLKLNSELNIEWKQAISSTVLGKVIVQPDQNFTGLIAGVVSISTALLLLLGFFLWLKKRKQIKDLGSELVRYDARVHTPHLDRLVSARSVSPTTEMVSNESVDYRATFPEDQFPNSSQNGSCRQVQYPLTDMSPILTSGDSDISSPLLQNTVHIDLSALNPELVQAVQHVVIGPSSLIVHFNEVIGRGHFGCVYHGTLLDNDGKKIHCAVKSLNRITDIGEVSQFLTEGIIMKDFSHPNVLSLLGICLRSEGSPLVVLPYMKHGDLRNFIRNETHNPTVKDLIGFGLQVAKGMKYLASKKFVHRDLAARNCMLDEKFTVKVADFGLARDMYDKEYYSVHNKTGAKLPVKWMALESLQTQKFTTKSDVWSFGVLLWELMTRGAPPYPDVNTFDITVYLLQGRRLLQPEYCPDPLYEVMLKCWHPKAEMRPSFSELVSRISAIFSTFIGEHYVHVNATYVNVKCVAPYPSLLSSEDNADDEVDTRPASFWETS
assay_procedure: MET (human) AlphaScreen kinase assay, Km of ATP
Type: biochemical
study_conditions: AlphaScreen, Km of ATP; read-out: Met biochemical IC50

smiles_input	tested_on	IC50
C[C@@H](Oc1c(N)ncc2c(-c3cnn(C4CCNCC4)c3)c(-c3ccccc3)oc12)c1c(Cl)ccc(F)c1Cl	MET (human) (Homo sapiens, UniProt P08581)	500 to 5000 nM
C[C@@H](Oc1c(N)ncc2c(-c3cccc(S(C)(=O)=O)c3)coc12)c1c(Cl)ccc(F)c1Cl	MET (human) (Homo sapiens, UniProt P08581)	< 500 nM
C[C@@H](Oc1c(N)ncc2c(-c3cccc(NS(=O)(=O)CCC(F)(F)F)c3)coc12)c1c(Cl)ccc(F)c1Cl	MET (human) (Homo sapiens, UniProt P08581)	500 to 5000 nM
C[C@@H](Oc1c(N)ncc2c(C3=CCN(C(=O)[C@@H]4CCCN4C)CC3)coc12)c1c(Cl)ccc(F)c1Cl	MET (human) (Homo sapiens, UniProt P08581)	< 500 nM
C[C@@H](Oc1c(N)ncc2ccoc12)c1nnc2ccc(-c3cnn(C)c3)nn12	MET (human) (Homo sapiens, UniProt P08581)	500 to 5000 nM
C[C@@H](Oc1c(N)ncc2c(-c3cnn([C@@H]4CCNC4)c3)coc12)c1c(Cl)ccc(F)c1Cl	MET (human) (Homo sapiens, UniProt P08581)	< 500 nM
C[C@@H](Oc1c(N)ncc2c(-c3cccc(C(N)=O)c3)coc12)c1c(Cl)ccc(F)c1Cl	MET (human) (Homo sapiens, UniProt P08581)	500 to 5000 nM

* * *

Some compounds, each annotated with its measured IC50.
tested_on: MET (human) (Homo sapiens)
assay_procedure: MET (human) AlphaScreen kinase assay, Km of ATP
Format: biochemical
study_conditions: AlphaScreen, Km of ATP; read-out: Met biochemical IC50
result_type: IC50

compound	measured
C[C@@H](Oc1c(N)ncc2c(-c3cccn3C)coc12)c1c(Cl)ccc(F)c1Cl	500 to 5000 nM
C[C@@H](Oc1c(N)ncc2c(C3=CCN(C(=O)[C@H]4CCNC4)CC3)coc12)c1c(Cl)ccc(F)c1Cl	< 500 nM
C[C@@H](Oc1c(N)ncc2c(-c3csc(C(=O)NC(C)(C)C)c3)coc12)c1c(Cl)ccc(F)c1Cl	< 500 nM
C[C@@H](Oc1c(N)ncc2c(C3=CCN(C(=O)[C@H]4CCCCN4)CC3)coc12)c1c(Cl)ccc(F)c1Cl	< 500 nM
C[C@@H](Oc1c(N)ncc2c(-c3ccc(C(=O)NCCN(C)C)cc3)coc12)c1c(Cl)ccc(F)c1Cl	< 500 nM
C[C@@H](Oc1c(N)ncc2c(-c3ccn4ccnc4c3)coc12)c1c(Cl)ccc(F)c1Cl	< 500 nM
C[C@@H](Oc1c(N)ncc2c(-c3cccc(CN4CCCCC4)c3)coc12)c1c(Cl)ccc(F)c1Cl	< 500 nM
CC(Oc1c(N)ncc2c(-c3cnn(C4CCNCC4)c3)coc12)c1nc2ccccc2s1 (stereo not drawn)	500 to 5000 nM
C[C@@H](Oc1c(N)ncc2c(-c3csc(CN4CCN(C)CC4)c3)coc12)c1c(Cl)ccc(F)c1Cl	< 500 nM
CCNC(=O)c1coc2c(O[C@H](C)c3c(Cl)ccc(F)c3Cl)c(N)ncc12	< 500 nM
C[C@@H](Cc1ccccc1)Oc1c(N)ncc2c(-c3cnn(C4CCNCC4)c3)coc12	< 500 nM
CC(Cc1c(F)cccc1F)Oc1c(N)ncc2c(-c3cnn(C4CCNCC4)c3)coc12 (stereo not drawn)	< 500 nM
CC(Cc1c(F)cccc1Cl)Oc1c(N)ncc2c(-c3cnn(C4CCNCC4)c3)coc12 (stereo not drawn)	500 to 5000 nM
C[C@@H](Oc1c(N)ncc2c(-c3ccc(C(=O)N4CCNCC4)cc3)coc12)c1c(Cl)ccc(F)c1Cl	< 500 nM
C[C@@H](Oc1c(N)ncc2c(-c3cccc(O)c3)coc12)c1c(Cl)ccc(F)c1Cl	500 to 5000 nM
